Would you mind telling me the reported self-cleavage kobs at 160 uM GlcN6P of each entry?
B1: glmS ribozyme (parent)
chain: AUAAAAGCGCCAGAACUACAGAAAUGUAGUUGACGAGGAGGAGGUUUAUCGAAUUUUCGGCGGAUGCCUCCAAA

- Variants of: B1
- protocol_summary: self-cleavage kobs at 160 uM GlcN6P; higher = faster cleavage; RNA array
- run_conditions: with glucosamine-6-phosphate
Variants at the floor of the assay were thinned out.

Record U46G U49A , field self-cleavage kobs at 160 uM GlcN6P: < 1e-05 s⁻¹

Record A36U G63C C67U , field self-cleavage kobs at 160 uM GlcN6P: < 1e-05 s⁻¹

Record A12U A15U , field self-cleavage kobs at 160 uM GlcN6P: 0.0011 s⁻¹

Record C11A C50A C68G , field self-cleavage kobs at 160 uM GlcN6P: 0.000352 s⁻¹

Record A14G G32A , field self-cleavage kobs at 160 uM GlcN6P: 0.000935 s⁻¹

Record "A12C" , field self-cleavage kobs at 160 uM GlcN6P: 0.00261 s⁻¹

Record G44A G63A , field self-cleavage kobs at 160 uM GlcN6P: < 1e-05 s⁻¹

Record U31C A42G , field self-cleavage kobs at 160 uM GlcN6P: 0.000469 s⁻¹

Record C58U U65A , field self-cleavage kobs at 160 uM GlcN6P: < 1e-05 s⁻¹

Record C11U A15C , field self-cleavage kobs at 160 uM GlcN6P: 2.57e-05 s⁻¹

Record A12G A53U , field self-cleavage kobs at 160 uM GlcN6P: 2.34e-05 s⁻¹

Record C34G U47A , field self-cleavage kobs at 160 uM GlcN6P: < 1e-05 s⁻¹

Record A12G G63A A64U , field self-cleavage kobs at 160 uM GlcN6P: < 1e-05 s⁻¹

Record G9U G41C U47G , field self-cleavage kobs at 160 uM GlcN6P: < 1e-05 s⁻¹

Record C10U G37A , field self-cleavage kobs at 160 uM GlcN6P: < 1e-05 s⁻¹

Record "C19U" , field self-cleavage kobs at 160 uM GlcN6P: 0.00445 s⁻¹

Record G13U G37A , field self-cleavage kobs at 160 uM GlcN6P: < 1e-05 s⁻¹

Record U45A G66U , field self-cleavage kobs at 160 uM GlcN6P: 0.000117 s⁻¹

Record G38U G43A C58G U65C , field self-cleavage kobs at 160 uM GlcN6P: < 1e-05 s⁻¹

Record A14C C68U , field self-cleavage kobs at 160 uM GlcN6P: 6.97e-05 s⁻¹

Record G41A C50G , field self-cleavage kobs at 160 uM GlcN6P: < 1e-05 s⁻¹

Record C11A A42G A53C , field self-cleavage kobs at 160 uM GlcN6P: < 1e-05 s⁻¹

Record C8G U45C , field self-cleavage kobs at 160 uM GlcN6P: < 1e-05 s⁻¹

Record G41U C58G , field self-cleavage kobs at 160 uM GlcN6P: < 1e-05 s⁻¹

Record G7U C16G G43U C67G , field self-cleavage kobs at 160 uM GlcN6P: < 1e-05 s⁻¹

Record C8U G9U , field self-cleavage kobs at 160 uM GlcN6P: < 1e-05 s⁻¹

Record G9U U47C , field self-cleavage kobs at 160 uM GlcN6P: < 1e-05 s⁻¹

Record G32C G43U , field self-cleavage kobs at 160 uM GlcN6P: < 1e-05 s⁻¹

Record G38A G40A U49G G60U , field self-cleavage kobs at 160 uM GlcN6P: < 1e-05 s⁻¹

Record G40C C61G , field self-cleavage kobs at 160 uM GlcN6P: < 1e-05 s⁻¹

Record U47G C71G , field self-cleavage kobs at 160 uM GlcN6P: 5.19e-05 s⁻¹

Record G29C G35A G59U A64G , field self-cleavage kobs at 160 uM GlcN6P: < 1e-05 s⁻¹

Record C8G U57C G62U , field self-cleavage kobs at 160 uM GlcN6P: < 1e-05 s⁻¹

Record U47A G51U , field self-cleavage kobs at 160 uM GlcN6P: < 1e-05 s⁻¹

Record U49C G62U , field self-cleavage kobs at 160 uM GlcN6P: < 1e-05 s⁻¹

Record C16U A64G , field self-cleavage kobs at 160 uM GlcN6P: 0.00126 s⁻¹

Record C8U G62A , field self-cleavage kobs at 160 uM GlcN6P: < 1e-05 s⁻¹

Record U47A U54C , field self-cleavage kobs at 160 uM GlcN6P: 0.00125 s⁻¹

Record G35U G43U A53C C70A , field self-cleavage kobs at 160 uM GlcN6P: < 1e-05 s⁻¹

Record U55G C67G , field self-cleavage kobs at 160 uM GlcN6P: 0.000234 s⁻¹

Record U31A C61G , field self-cleavage kobs at 160 uM GlcN6P: < 1e-05 s⁻¹

Record C16U C50U U69G , field self-cleavage kobs at 160 uM GlcN6P: 7.48e-05 s⁻¹

Record C16U C58G C68G , field self-cleavage kobs at 160 uM GlcN6P: 0.000169 s⁻¹

Record C10U G37C G44U U65C , field self-cleavage kobs at 160 uM GlcN6P: < 1e-05 s⁻¹

Record C34G G40U G41A C58U , field self-cleavage kobs at 160 uM GlcN6P: < 1e-05 s⁻¹
